This collection of values is drawn from the emibetuzumab library of Makowski et al. (2022).

B1: VH:VL chains; a variant is named by its letters at X, in order (parent)
chain 1: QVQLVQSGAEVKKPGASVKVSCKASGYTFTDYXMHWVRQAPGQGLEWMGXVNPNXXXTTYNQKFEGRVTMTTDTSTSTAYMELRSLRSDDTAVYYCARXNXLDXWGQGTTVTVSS
chain 2: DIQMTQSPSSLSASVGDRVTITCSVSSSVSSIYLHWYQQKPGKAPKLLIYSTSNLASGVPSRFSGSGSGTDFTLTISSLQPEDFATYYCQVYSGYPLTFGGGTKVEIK

variants of: B1; assay: yeast display scFab, FACS + sequencing; details: with MET
The list shows a part of the results. How many sequences the whole screen found active is unknown.
measurementLabel: antigen binding call

>  <mutant>
VTAGDDGS

>  <reported>
no binding

$$$$
>  <mutant>
YKGRAALY

>  <reported>
no binding

$$$$
>  <mutant>
YRGKGSAD

>  <reported>
binds

$$$$
>  <mutant>
DKEGGSLV

>  <reported>
no binding

$$$$
>  <mutant>
YKAGGSGV

>  <reported>
binds

$$$$
>  <mutant>
YKGRGSLY

>  <reported>
binds

$$$$
>  <mutant>
YKKGGSGV

>  <reported>
binds

$$$$
>  <mutant>
FRGRASLS

>  <reported>
binds

$$$$

Enquiry: I would be grateful if you could share the reported antigen binding call for YKGGSFGV .
Return: no binding

Enquiry: Look up antigen binding call: VAEKGFLV
Return: no binding

Enquiry: Could you share which antigen binding call value was measured for YRKRGSVV ?
Return: binds
